Reported pEC50 is given for each of the following compounds.
Target: 5-hydroxytryptamine receptor 2B (Homo sapiens)
Sequence (P41595 whole entry): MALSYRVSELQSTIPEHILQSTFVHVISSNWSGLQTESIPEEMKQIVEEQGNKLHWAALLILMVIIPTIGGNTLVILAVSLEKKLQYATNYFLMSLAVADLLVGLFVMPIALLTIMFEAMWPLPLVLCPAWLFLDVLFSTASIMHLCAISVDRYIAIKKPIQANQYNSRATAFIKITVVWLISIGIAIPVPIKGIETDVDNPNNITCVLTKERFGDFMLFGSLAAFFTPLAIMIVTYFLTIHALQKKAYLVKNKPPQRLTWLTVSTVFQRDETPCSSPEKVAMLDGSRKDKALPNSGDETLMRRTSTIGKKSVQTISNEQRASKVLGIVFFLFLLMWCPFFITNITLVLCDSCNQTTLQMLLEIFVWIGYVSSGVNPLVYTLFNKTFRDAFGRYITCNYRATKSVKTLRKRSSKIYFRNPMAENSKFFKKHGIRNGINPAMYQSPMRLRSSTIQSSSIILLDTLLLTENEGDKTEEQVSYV
Assay: Agonist activity at human recombinant 5HT2B receptor expressed in HEK293E cells by FLIPR assay
pEC50: −log10 of the molar value.
PARAMETER MEASURED: pEC50

| COMPOUND | RESULT |
| --- | --- |
| O=C1NC2CNCCN2c2cccc(C(F)(F)F)c21 (single isomer, unassigned) | < 5.00 |
| Cc1ccc2c(c1)N1CCNCCC1NC2=O (stereo in doubt; (+)-3c) | < 5.00 |
| Cc1cccc2c1C(=O)NC1CNCCN21 (single isomer, unassigned; (+)) | < 5.00 |

###

Test: AUC (0 to infinity) in Sprague-Dawley rat at 1 mg/kg, iv
Type: ADME, organism-based
Set-up: time infinity, dose 1 mg/kg, route intravenous
Details: plasma

| MOLECULE | AUC(0-inf), µM·h |
| --- | --- |
| Cc1cccc2c1C(=O)NC1CNCCN21 (single isomer, unassigned; (+)) | 2.34 |

###

Below: a set of entries, each annotated with reported pKi.
Target: UniProt:P28335
Sequence (P28335 whole entry): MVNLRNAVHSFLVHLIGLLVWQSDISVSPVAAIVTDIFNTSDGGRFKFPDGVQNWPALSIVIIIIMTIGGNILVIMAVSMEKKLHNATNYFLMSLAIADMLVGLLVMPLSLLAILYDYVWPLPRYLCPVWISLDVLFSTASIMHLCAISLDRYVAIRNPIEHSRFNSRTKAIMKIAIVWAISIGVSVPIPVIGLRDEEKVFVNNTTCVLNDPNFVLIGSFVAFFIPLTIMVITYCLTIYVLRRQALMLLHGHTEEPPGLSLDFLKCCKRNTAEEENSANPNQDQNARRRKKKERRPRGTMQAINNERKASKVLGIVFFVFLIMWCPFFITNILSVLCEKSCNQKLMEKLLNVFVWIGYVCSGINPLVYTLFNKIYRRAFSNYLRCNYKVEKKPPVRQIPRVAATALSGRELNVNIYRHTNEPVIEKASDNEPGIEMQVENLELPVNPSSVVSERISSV
Assay: Displacement of [125I]DOI from human recombinant 5HT2C receptor expressed in HEK293E cells
pKi: −log10 of the molar value.
PARAMETER MEASURED: pKi

| MOLECULE | PARAMETER MEASURED | COMPARATIVE SIGN | MEASURED NUMBER |
| --- | --- | --- | --- |
| Cc1cccc2c1C(=O)NC1CNCCN21 (single isomer, unassigned; (+)) | pKi | = | 7.05 |
| O=C1NC2CCNCCN2c2ccccc21 (single isomer, unassigned) | pKi | = | 7.31 |
| O=C1NC2CNCCCN2c2cccc(Cl)c21 (racemic) | pKi | = | 5.81 |
| O=C1NC2CNCCN2c2c(Cl)cccc21 (stereo unspecified) | pKi | < | 5.00 |
| Cc1cccc2c1C(=O)NC1CCNCCN21 (stereo unspecified) | pKi | = | 8.54 |
| O=C1NC2CNCCN2c2ccc(Cl)cc21 (single isomer, unassigned) | pKi | = | 6.12 |

###

Molecular target: 5-hydroxytryptamine receptor 2C (Homo sapiens, UniProt P28335)
Assay: Displacement of [125I]DOI from human recombinant 5HT2C receptor expressed in HEK293E cells

| COMPOUND | Ki [µM] |
| --- | --- |
| Cc1cccc2c1N1CCNCC1NC2=O (stereo not given) | 6.15 |
| O=C1NC2CCNCCN2c2cccc(Cl)c21 (single isomer, unassigned) | 0.009 |
| Cc1ccc2c(c1)N1CCNCCC1NC2=O (stereo in doubt; (+)-3c) | 0.0065 |
| Cc1ccc2c(c1)N1CCNCC1NC2=O (single isomer, unassigned) | 0.479 |
| Cc1cccc2c1C(=O)NC1CNCCN21 (stereo in doubt; (-)-2a) | 2.08 |
